Record form. Attribute: log10(Ki). Fill in for each entry.
molecular target: UniProt:Q9H244; assay: Binding affinity at human recombinant P2Y12 receptor expressed in CHO cells by radioligand binding assay
Log scale reminder: Ki in nM, then log10 taken.

CCCCCOC(=O)N1CCN(C(=O)[C@H](CCC(=O)O)NC(=O)c2cc(N3CCC(CNC)CC3)nc(-c3ccccc3)n2)CC1; 0.08
CCCCCOC(=O)N1CCN(C(=O)[C@H](CCC(=O)O)NC(=O)c2nc(-c3ccccc3)cc(N3CCC(C(=O)N4CCCC4)CC3)n2)CC1; 0.56
CCCCCOC(=O)N1CCN(C(=O)[C@H](CCC(=O)O)NC(=O)c2cc(SCC(F)(F)F)nc(-c3ccccc3)n2)CC1; 1.34
CCCCCOC(=O)N1CCN(C(=O)[C@H](CCC(=O)O)NC(=O)c2nc(-c3ccccc3)cc(N3CCN(CC(=O)N(C)C)CC3)n2)CC1; 0.83
CCCCCOC(=O)N1CCN(C(=O)[C@H](CCC(=O)O)NC(=O)c2cc(N3CCC(CN(CC)CC)CC3)nc(-c3ccccc3)n2)CC1; -0.21
CCCCCOC(=O)N1CCN(C(=O)[C@H](CCC(=O)O)NC(=O)c2cc(NCCCN(C)C)nc(-c3ccccc3)n2)CC1; 0.68

Could I get log10(Ki) for every one of these entries?
1. CCCCCOC(=O)N1CCN(C(=O)[C@H](CCC(=O)O)NC(=O)c2nc(-c3ccccc3)cc(N3CCOCC3)n2)CC1
2. CCCCCOC(=O)N1CCN(C(=O)[C@H](CCC(=O)O)NC(=O)c2cc(N3CCN(CC(=O)N4CCCC4)CC3)nc(-c3ccccc3)n2)CC1
3. CCCCCOC(=O)N1CCN(C(=O)[C@H](CCC(=O)O)NC(=O)c2nc(-c3ccccc3)cc(N3CCC(CNCC)CC3)n2)CC1
4. CCCCCOC(=O)N1CCN(C(=O)[C@H](CCC(=O)O)NC(=O)c2nc(-c3ccccc3)cc(N3CCC(C(N)=O)CC3)n2)CC1
5. CCCCCOC(=O)N1CCN(C(=O)[C@H](CCC(=O)O)NC(=O)c2cc(N3CCC(CC(=O)N4CCC4)CC3)nc(-c3ccccc3)n2)CC1
6. CCCCCOC(=O)N1CCN(C(=O)[C@H](CCC(=O)O)NC(=O)c2cc(N3CCN(CC(=O)N(C)C)CC3)nc(-c3ccccc3)n2)CC1
7. CCCCCOC(=O)N1CCN(C(=O)[C@H](CCC(=O)O)NC(=O)c2cc(N3CCC(OCCO)CC3)nc(-c3ccccc3)n2)CC1

Marked response:
[1.04, 0.32, 1.04, 0.54, -0.04, 0.41, -0.15]

Could I get log10(Ki) for every one of these entries?
1. CCCCCOC(=O)N1CCN(C(=O)[C@H](CCC(=O)O)NC(=O)c2nc(-c3ccccc3)cc(N3CCN(C(C)=O)CC3)n2)CC1
2. CCCCCOC(=O)N1CCN(C(=O)[C@H](CCC(=O)O)NC(=O)c2cc(N3CCC(CC(=O)NC)CC3)nc(-c3ccccc3)n2)CC1
3. CCCCCOC(=O)N1CCN(C(=O)[C@H](CCC(=O)O)NC(=O)c2nc(NC3CCN(C(C)C)CC3)cc(-c3ccccc3)n2)CC1
4. CCCCCOC(=O)N1CCN(C(=O)[C@H](CCC(=O)O)NC(=O)c2cc(OCCOC)nc(-c3ccccc3)n2)CC1
5. CCCCOC(=O)N1CCN(C(=O)[C@H](CCC(=O)O)NC(=O)c2cc(N3CCC(C(=O)N(CC)CC)CC3)nc(-c3ccccc3)n2)CC1

Marked response:
1.46
-0.05
1.54
0.08
-0.10

Could I get log10(Ki) for every one of these entries?
1. CCCCOC(=O)N1CCN(C(=O)[C@H](CCC(=O)O)NC(=O)c2cc(N3CCC(OC)CC3)nc(-c3ccccc3)n2)CC1
2. CCCCCOC(=O)N1CCN(C(=O)[C@H](CCC(=O)O)NC(=O)c2nc(-c3ccccc3)cc(N3CCC(CCOC)CC3)n2)CC1
3. CCCCCOC(=O)N1CCN(C(=O)[C@H](CCC(=O)O)NC(=O)c2nc(-c3ccccc3)cc(N3CCC(COC)CC3)n2)CC1

Marked response:
1: 0.15; 2: 0.92; 3: 1.08

Could I get log10(Ki) for every one of these entries?
1. CCCCOC(=O)N1CCN(C(=O)[C@H](CCC(=O)O)NC(=O)c2cc(OC(CC)C(=O)N(CC)CC)nc(-c3ccccc3)n2)CC1 (stereo partly drawn)
2. CCCCCOC(=O)N1CCN(C(=O)[C@H](CCC(=O)O)NC(=O)c2cc(SC3CCCC3)nc(-c3ccccc3)n2)CC1
3. CCCCCOC(=O)N1CCN(C(=O)[C@H](CCC(=O)O)NC(=O)c2nc(OCCOC)cc(-c3ccccc3)n2)CC1

Marked response:
[2.09, 1.23, 0.08]

* * *

biological target: P2Y purinoceptor 12 (Homo sapiens); assay: Ratio of compound IC50 to thienopyrimidine IC50 for P2Y12 receptor in human platelet rich plasma assessed as inhibition of ADP-induced platelet aggregation by light transmission aggregometry
Sequence (Q9H244 whole entry): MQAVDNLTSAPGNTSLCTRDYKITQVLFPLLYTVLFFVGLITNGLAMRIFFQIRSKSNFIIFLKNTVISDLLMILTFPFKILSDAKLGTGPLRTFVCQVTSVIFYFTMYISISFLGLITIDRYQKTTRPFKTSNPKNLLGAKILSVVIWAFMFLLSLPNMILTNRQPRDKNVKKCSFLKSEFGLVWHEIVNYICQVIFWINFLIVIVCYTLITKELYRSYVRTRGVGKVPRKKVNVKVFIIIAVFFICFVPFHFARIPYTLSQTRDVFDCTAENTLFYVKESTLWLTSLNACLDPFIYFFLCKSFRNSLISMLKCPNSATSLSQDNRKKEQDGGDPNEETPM
assay.readout: Ratio IC50
Give bare numbers.

CCCCCOC(=O)N1CCN(C(=O)[C@H](CCC(=O)O)NC(=O)c2cc(N3CCC(C(=O)N4CCCC4)CC3)nc(-c3ccccc3)n2)CC1; 0.06
CCCCCOC(=O)N1CCN(C(=O)[C@H](CCC(=O)O)NC(=O)c2nc(OCC3CCNCC3)cc(-c3ccccc3)n2)CC1; 1.7
CCCCCOC(=O)N1CCN(C(=O)[C@H](CCC(=O)O)NC(=O)c2nc(-c3ccccc3)cc(N3CCC(OCCOC)CC3)n2)CC1; 1.2

Could I get Ratio IC50 for every one of these entries?
1. CCCCCOC(=O)N1CCN(C(=O)[C@H](CCC(=O)O)NC(=O)c2nc(-c3ccccc3)cc(N3CCC(N4CCOCC4)CC3)n2)CC1
2. CCCCCOC(=O)N1CCN(C(=O)[C@H](CCC(=O)O)NC(=O)c2nc(-c3ccccc3)cc(N3CCC(CNCC)CC3)n2)CC1
3. CCCCOC(=O)N1CCN(C(=O)[C@H](CCC(=O)O)NC(=O)c2cc(N3CCC(CCOC)CC3)nc(-c3ccccc3)n2)CC1
4. CCCCCOC(=O)N1CCN(C(=O)[C@H](CCC(=O)O)NC(=O)c2cc(OCC3CCNCC3)nc(-c3ccccc3)n2)CC1

Marked response:
0.8
0.4
0.5
0.3

* * *

assay: Clearance in Sprague-Dawley rat at 2 mg/kg, iv and 5 mg/kg, po; type: ADME, organism-based; conditions: in vivo
assay.readout: clearance (mL/min/kg)
Give bare numbers, in mL/min/kg.

CCCCOC(=O)N1CCN(C(=O)[C@H](CCC(=O)O)NC(=O)c2cc(N3CCC(C(=O)NCC)CC3)nc(-c3ccccc3)n2)CC1; 16

Could I get clearance for every one of these entries?
1. CCCCCOC(=O)N1CCN(C(=O)[C@H](CCC(=O)O)NC(=O)c2cc(N3CCC(C(=O)N(CC)CC)CC3)nc(-c3ccccc3)n2)CC1
2. CCCCCOC(=O)N1CCN(C(=O)[C@H](CCC(=O)O)NC(=O)c2cc(N3CCC(CN4CCCC4)CC3)nc(-c3ccccc3)n2)CC1
3. CCCCCOC(=O)N1CCN(C(=O)[C@H](CCC(=O)O)NC(=O)c2cc(N3CCC(C(=O)N4CCCC4)CC3)nc(-c3ccccc3)n2)CC1
4. CCCCCOC(=O)N1CCN(C(=O)[C@H](CCC(=O)O)NC(=O)c2cc(N3CCC(COC)CC3)nc(-c3ccccc3)n2)CC1
5. CCCCCOC(=O)N1CCN(C(=O)[C@H](CCC(=O)O)NC(=O)c2cc(N3CCC(CN)CC3)nc(-c3ccccc3)n2)CC1
6. CCCCCOC(=O)N1CCN(C(=O)[C@H](CCC(=O)O)NC(=O)c2cc(N3CCC(CNC)CC3)nc(-c3ccccc3)n2)CC1
7. CCCCCOC(=O)N1CCN(C(=O)[C@H](CCC(=O)O)NC(=O)c2cc(N3CCC(C(=O)NCC)CC3)nc(-c3ccccc3)n2)CC1

Marked response:
6
98
2
14
33
31
8

* * *

molecular target: UniProtKB Q9H244; test: Ratio of compound IC50 to AZD-6140 IC50 for P2Y12 receptor in human platelet rich plasma assessed as inhibition of ADP-induced platelet aggregation by light transmission aggregometry
Record form. Attribute: Ratio IC50. Fill in for each entry.

Field: example entries. Status: answers known.
CCCCCOC(=O)N1CCN(C(=O)[C@H](CCC(=O)O)NC(=O)c2cc(N3CCC(CCN4CCCC4)CC3)nc(-c3ccccc3)n2)CC1; 0.5
CCCCCOC(=O)N1CCN(C(=O)[C@H](CCC(=O)O)NC(=O)c2nc(-c3ccccc3)cc(N3CCC(OCCOC)CC3)n2)CC1; 5.3
CCCCCOC(=O)N1CCN(C(=O)[C@H](CCC(=O)O)NC(=O)c2cc(N3CCC(C(=O)NCC)CC3)nc(-c3ccccc3)n2)CC1; 1.5
CCCCCOC(=O)N1CCN(C(=O)[C@H](CCC(=O)O)NC(=O)c2cc(N3CCN(C(=O)N(C)C)CC3)nc(-c3ccccc3)n2)CC1; 1.5
CCCCCOC(=O)N1CCN(C(=O)[C@H](CCC(=O)O)NC(=O)c2cc(OCC3CCNCC3)nc(-c3ccccc3)n2)CC1; 1.7
CCCCCOC(=O)N1CCN(C(=O)[C@H](CCC(=O)O)NC(=O)c2nc(-c3ccccc3)cc(N3CCC(CCN4CCCC4)CC3)n2)CC1; 1.7
CCCCCOC(=O)N1CCN(C(=O)[C@H](CCC(=O)O)NC(=O)c2cc(N3CCOCC3)nc(-c3ccccc3)n2)CC1; 7.9
CCCCCOC(=O)N1CCN(C(=O)[C@H](CCC(=O)O)NC(=O)c2cc(NC3CCN(C(C)C)CC3)nc(-c3ccccc3)n2)CC1; 3.5

Could I get Ratio IC50 for every one of these entries?
1. CCCCCOC(=O)N1CCN(C(=O)[C@H](CCC(=O)O)NC(=O)c2cc(OCCOC)nc(-c3ccccc3)n2)CC1
2. CCCCOC(=O)N1CCN(C(=O)[C@H](CCC(=O)O)NC(=O)c2cc(OC3CCNCC3)nc(-c3ccccc3)n2)CC1
3. CCCCOC(=O)N1CCN(C(=O)[C@H](CCC(=O)O)NC(=O)c2cc(OC3CCN(C(C)C)CC3)nc(-c3ccccc3)n2)CC1
4. CCCCCOC(=O)N1CCN(C(=O)[C@H](CCC(=O)O)NC(=O)c2cc(N3CCC(CC(=O)N4CCC4)CC3)nc(-c3ccccc3)n2)CC1
5. CCCCCOC(=O)N1CCN(C(=O)[C@H](CCC(=O)O)NC(=O)c2nc(-c3ccccc3)cc(N3CCN(C(N)=O)CC3)n2)CC1

Marked response:
[8.8, 1.7, 2.8, 1.1, 4.7]

Exam item: Which Ratio IC50 is reported for this compound? "CCCCCOC(=O)N1CCN(C(=O)[C@H](CCC(=O)O)NC(=O)c2cc(N3CCC(COCCOC)CC3)nc(-c3ccccc3)n2)CC1"
Marked response: 1.2
